# target_desc: apelinR / human Gαi1 (Homo sapiens)
# assay_details: ebBRET Gαi1 activation
# Format: cell-based
# assay_setup: HEK293 cells transfected with apelinR, human Gαi1, Rap1GAP-RlucII, rGFP-CAAX; 10 min at 37 °C; mean ± SEM of 5 to 6 independent experiments; read-out: Gαi1 activation log EC50 (converted)
Where a SMILES comes first, the peptide text is derived from it.
experimental_endpoint: EC50 (nM)

>  <molecule>
CCCC[C@H](NC(=O)[C@@H]1CCCN1C(=O)CNC(=O)[C@H](CCCCN)NC(=O)[C@H](Cc1c[nH]cn1)NC(=O)[C@H](CO)NC(=O)[C@H](CC(C)C)N(C)C(=O)[C@H](CCCNC(=N)N)NC(=O)[C@@H]1CCCN1C(=O)[C@H](CCCNC(=N)N)NC(=O)[C@@H]1CCC(=O)N1)C(=O)NC(C)(C)C(=O)N[C@@H](Cc1ccc(Br)cc1)C(=O)O

>  <target_desc>
apelinR / human Gαi1 (Homo sapiens)

>  <experimental_endpoint>
EC50

>  <observed_result>
0.0339

$$$$

I = CSCC[C@H](NC(=O)[C@@H]1CCCN1C(=O)CNC(=O)[C@H](CCCCN)NC(=O)[C@H](Cc1c[nH]cn1)NC(=O)[C@@H](N)CO)C(=O)N1CCC[C@H]1C(=O)N[C@@H](Cc1ccccc1)C(=O)O [apelin 8-mer C-terminal] (H-SHKGPMPF-OH)
II = CSCC[C@H](NC(=O)[C@@H]1CCCN1C(=O)CN)C(=O)N1CCC[C@H]1C(=O)N[C@@H](Cc1ccccc1)C(=O)O [apelin-5-mer C-terminal] (H-GPMPF-OH)
III = CCOCc1nc(O)c(-c2nnc(Cc3ccc(Cl)cn3)o2)c(O)c1-c1c(OC)cccc1OC [BMS-986224, reference compound]
Prompt: List items by EC50 in falling order. Response field: labels, in requested order.
Completion: II, I, III
(II: 1070 nM, I: 490 nM, III: 0.102 nM)

###

# target_desc: human apelinR (Homo sapiens)
experimental_endpoint: pIC50
Convention used: pIC50 is expressed as -log10 of the molar concentration.

Prompt: Please indicate pIC50 recorded for CCOCc1nc(O)c(-c2nnc(Cc3ccc(Cl)cn3)o2)c(O)c1-c1c(OC)cccc1OC [BMS-986224, reference compound]
Completion: 7.78

###

# target_desc: apelinR / human Gαi2 (Homo sapiens)
# Sequence (P35414 1-380): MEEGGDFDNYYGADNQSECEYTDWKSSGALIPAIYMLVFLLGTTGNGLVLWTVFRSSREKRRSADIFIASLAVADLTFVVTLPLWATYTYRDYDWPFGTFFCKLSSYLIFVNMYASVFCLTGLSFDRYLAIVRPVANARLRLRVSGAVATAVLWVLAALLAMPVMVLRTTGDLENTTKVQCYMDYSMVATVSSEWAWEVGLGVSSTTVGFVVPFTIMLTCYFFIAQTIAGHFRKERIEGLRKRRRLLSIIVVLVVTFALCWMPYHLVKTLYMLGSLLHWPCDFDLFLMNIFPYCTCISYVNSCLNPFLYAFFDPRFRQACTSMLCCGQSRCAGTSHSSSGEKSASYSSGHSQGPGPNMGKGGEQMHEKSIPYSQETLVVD
# assay_details: ebBRET Gαi2 activation
# Assay type: cell-based
# assay_setup: HEK293 cells transfected with apelinR, human Gαi2, Rap1GAP-RlucII, rGFP-CAAX; 10 min at 37 °C; mean ± SEM of 5 to 6 independent experiments; read-out: Gαi2 activation log EC50 (converted)
Where a SMILES comes first, the peptide text is derived from it.
experimental_endpoint: EC50 (nM)

>  <molecule>
CCCC[C@H](NC(=O)[C@@H]1CCCN1C(=O)CNC(=O)[C@H](CCCCN)NC(=O)[C@H](Cc1c[nH]cn1)NC(=O)[C@H](CO)NC(=O)[C@H](CC(C)C)N(C)C(=O)[C@H](CCCNC(=N)N)NC(=O)[C@@H]1CCCN1C(=O)[C@H](CCCNC(=N)N)NC(=O)[C@@H]1CCC(=O)N1)C(=O)NC(C)(C)C(=O)N[C@@H](Cc1ccc(Br)cc1)C(=O)O [NMeLeu13A2]

>  <experimental_endpoint>
EC50

>  <observed_result>
0.0219

$$$$

A = CCOCc1nc(O)c(-c2nnc(Cc3ccc(Cl)cn3)o2)c(O)c1-c1c(OC)cccc1OC [BMS-986224, reference compound]
B = CSCC[C@H](NC(=O)[C@@H]1CCCN1C(=O)CNC(=O)[C@H](CCCCN)NC(=O)[C@H](Cc1c[nH]cn1)NC(=O)[C@@H](N)CO)C(=O)N1CCC[C@H]1C(=O)N[C@@H](Cc1ccccc1)C(=O)O [apelin 8-mer C-terminal] (H-SHKGPMPF-OH)
C = CSCC[C@H](NC(=O)[C@@H]1CCCN1C(=O)CN)C(=O)N1CCC[C@H]1C(=O)N[C@@H](Cc1ccccc1)C(=O)O [apelin-5-mer C-terminal] (H-GPMPF-OH)
Prompt: Please list the entries, largest EC50 first. Give the labels in the order specified.
Completion: C, B, A
(C: 1150 nM, B: 347 nM, A: 0.11 nM)
